Tested on: c-Abl (mouse);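 further: 11-residue human phosphosite peptides and single-mutation variants displayed on the E. coli surface, counted by deep sequencing, each peptide's frequency after selection divided by its frequency in the unselected input library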;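 further: frequency after pTyr selection over input frequency; kinase dosed for 20-30% of maximal phosphorylation in three min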
Test protocol: phosphorylation enrichment, bacterial display (enrichment ratio); higher = better substrate or ligand; peptides without Tyr show the background
For each record, write down the corresponding phosphorylation enrichment.

Worked examples follow.
- Biosequence: "THPFLYLTLEI [MLH1_Y293_S295T]"
  phosphorylation enrichment: 1.22
- Biosequence: "IIWDSYTTNKM [GNB4_Y85]"
  phosphorylation enrichment: 0.596
- Biosequence: "TRGLEYIVPLM [CLCN4_Y548_G544R]"
  phosphorylation enrichment: 0.89
- Biosequence: "VERRVYAEDPY [PCCA_Y401_C398R]"
  phosphorylation enrichment: 0.566

State recorded phosphorylation enrichment for all listed sequences.
1. SIKDKYVTAVF [KCNH2_Y611_L615V_YF]
2. RPYVYYYSYLL [PTEN_Y177_R173P]

Reply |
[0.682, 1.4]
